// cross-source set; read-out = IC50; system = Serine protease 1 (Bos taurus)
Please respond with true when measured IC50 is strictly beneath 40000 nM, and with false in all other cases.

molecule | label.value
N=C(N)Nc1ccc(C(=O)Oc2ccc(S(N)(=O)=O)cc2)cc1 | true
COc1ccc2ccc(S(=O)(=O)N[C@@H](CCCNC(=N)N)C(=O)N3CCC(C(C)=O)(c4ccccc4)CC3)cc2c1 | true
N=C(N)c1ccc2cc(OC(=O)c3cccs3)ccc2c1 | true
CC(=N)N1CCC(Oc2ccc3c(ccc(=O)n3Cc3ccccc3-c3ccc(C(=N)N)cc3)c2)CC1 | false
CCOC(=O)C1CC(c2ccccc2)CCN1C(=O)[C@H](CCCNC(=N)N)NS(=O)(=O)c1ccc2ccc(OC)cc2c1 (some centres unmarked) | true
COc1ccc2[nH]c(C)c(CC(=O)Oc3ccc(C(=O)OCCN4CCN(CC(=O)N5CCOCC5)CC4)cc3)c2c1 | false
Cc1ccc(C(=O)Oc2ccc3cc(C(=N)N)ccc3c2)s1 | true
CCOc1c(OC)ccc(S(=O)(=O)N[C@@H](CCCNC(=N)N)C(=O)N2CCC(c3ccccc3)CC2)c1OC | true

====

// cross-source set; read-out = log10(IC50); system = Serine protease 1 (Bos taurus, UniProt P00760)
observed.property: log10(IC50) (log10 of the value in nM)

compound | observed.property | number
N=C(N)c1ccc(OC(=O)c2ccc(C(=O)N3CCN(Cc4ccccc4)CC3)cc2)cc1 | log10(IC50) | 2.34
N=C(N)NCCC[C@H](NS(=O)(=O)c1cccc2c1CCCC2)C(=O)N1CCC(c2ccccc2)CC1 | log10(IC50) | 3.89
CC(=N)N1CCC(Oc2ccc3c(c2)C(C)(C)C(=O)N3Cc2ccc3ccc(C(=N)N)cc3c2)CC1 | log10(IC50) | 1.13
CCOC(=O)c1cc2cccc(S(=O)(=O)N[C@@H](CCCNC(=N)N)C(=O)N3CCC(c4ccccc4)CC3)c2cc1OC | log10(IC50) | 3.32
N=C(N)Nc1ccc(C(=O)Oc2ccc(C(=O)OCC(=O)NC3CCCCC3)cc2)cc1 | log10(IC50) | -0.74
CCOC(=O)CN(C(=O)/C=C(\C)c1ccc(C(=O)Oc2ccc(C(=N)N)cc2)cc1)c1ccccc1 | log10(IC50) | 2.34
COc1ccc2ccc(S(=O)(=O)N[C@@H](CCCNC(=N)N)C(=O)N3CCN(c4ccc(Cl)cc4)CC3)cc2c1 | log10(IC50) | 2.84
CC(=N)N1CCC(Oc2ccc3c(c2)n(Cc2ccc4ccc(C(=N)N)cc4c2)c(=O)n3CC(=O)O)CC1 | log10(IC50) | 2.28
COc1ccc2ccc(S(=O)(=O)N[C@@H](CCCNC(=N)N)C(=O)N3CCC(c4ccccc4OC)CC3)cc2c1 | log10(IC50) | 2.45
CC1CNc2c(cccc2S(=O)(=O)N[C@@H](CCCNC(=N)N)C(=O)N2CCC(c3ccccc3)CC2)C1 (stereo partly shown) | log10(IC50) | 3.32
CN(C)C(=O)Cc1ccc(OC(=O)c2ccc(NC(=N)N)cc2)cc1 | log10(IC50) | 0.53
N=C(N)c1cccc(-c2ccccc2Cn2c(=O)ccc3cc(OC4CCNCC4)ccc32)c1 | log10(IC50) | 2.46
N=C(N)c1ccc2cc(OC(=O)c3ccc4[nH]cnc4c3)ccc2c1 | log10(IC50) | 2.00
CC(C)n1c(=O)n(Cc2ccc3ccc(C(=N)N)cc3c2)c2cc(OC3CCN(C(=N)N)CC3)ccc21 | log10(IC50) | 2.59
COc1ccc2cc(S(=O)(=O)N[C@@H](CCCNC(=N)N)C(=O)N3CCC(c4ccccc4)CC3)ccc2c1 | log10(IC50) | 4.61
COc1ccc2cc(S(=O)(=O)N[C@@H](CCCNC(=N)N)C(=O)N3CCC(c4ccccc4)CC3)cc(OC)c2c1 | log10(IC50) | 3.35
COc1ccc2ccc(S(=O)(=O)N[C@@H](CCCNC(=N)N)C(=O)N3CCN(c4ccccc4OC)CC3)cc2c1 | log10(IC50) | 2.90
N=C(N)NCCC[C@H](NS(=O)(=O)c1ccc2c(c1)CCCC2)C(=O)N1CCC(c2ccccc2)CC1 | log10(IC50) | 3.83
N=C(N)c1ccc(OC(=O)C=Cc2ccccc2)c([N+](=O)[O-])c1 | log10(IC50) | 3.60
CN1CCN(C(=O)c2ccc(OC(=O)c3ccc(NC(=N)N)cc3)cc2)CC1 | log10(IC50) | 1.48
CCCCOc1ccc(C(=O)Oc2ccc(C(=N)N)cc2[N+](=O)[O-])cc1 | log10(IC50) | 1.30
COc1ccc(C=CC(=O)Oc2ccc3cc(C(=N)N)ccc3c2)cc1OC | log10(IC50) | 2.00
CC(=N)N1CCC(Oc2ccc3[nH]c(=O)n(Cc4ccc5ccc(C(=N)N)cc5c4)c3c2)CC1 | log10(IC50) | 2.12
N=C(N)NCCC[C@H](NS(=O)(=O)c1ccc2cc3c(cc2c1)OCCO3)C(=O)N1CCC(c2ccccc2)CC1 | log10(IC50) | 3.78
CCn1c(Cn2c(=O)[nH]c3ccc(OC4CCN(C(C)=N)CC4)cc32)cc2ccc(C(=N)N)cc21 | log10(IC50) | 2.61
Cc1cc2ccc(S(=O)(=O)N[C@@H](CCCNC(=N)N)C(=O)N3CCC(c4ccccc4)CC3)cc2cc1C | log10(IC50) | 3.95

====

// cross-source set; read-out = IC50; system = Serine protease 1 (Bos taurus, UniProt P00760)
Please respond with Fulfilled when measured IC50 is strictly beneath 400 nM, and with Not fulfilled in all other cases.

smiles.entry | label.value
CNC(=O)Cc1ccc(OC(=O)c2ccc(NC(=N)N)cc2)cc1 | Fulfilled
CNC(=O)COC(=O)Cc1ccc(OC(=O)c2ccc(NC(=N)N)cc2)cc1 | Fulfilled
N=C(N)NCc1ccc(C(=O)Oc2ccc3cc(C(=N)N)ccc3c2)s1 | Not fulfilled
Cc1ccc(NS(=O)(=O)Cc2ccccc2)c(O)c1CC(=O)N[C@H](C=O)CCCN=C(N)N | Not fulfilled
COc1ccc2ccc(S(=O)(=O)N[C@@H](CCCNC(=N)N)C(=O)N3CCC(c4ccc(C)cc4)CC3)cc2c1 | Fulfilled
Cc1ccc(CCC(=O)Oc2ccc3cc(C(=N)N)ccc3c2)cc1 | Not fulfilled
CNS(=O)(=O)c1ccc(OC(=O)c2ccc(NC(=N)N)cc2)cc1 | Fulfilled
N=C(N)c1ccc2cc(OC(=O)c3ccc(S(N)(=O)=O)cc3)ccc2c1 | Not fulfilled
CC(C)COC(=O)Cn1c(=O)n(Cc2ccc3ccc(C(=N)N)cc3c2)c2cc(OC3CCN(C(=N)N)CC3)ccc21 | Fulfilled
COc1ccc2ccc(S(=O)(=O)N[C@@H](CCCNC(=N)N)C(=O)N3CCC(Oc4ccccc4)CC3)cc2c1 | Not fulfilled
CSc1ccc(C(=O)Oc2ccc(C(=N)N)cc2C(=O)c2ccccc2)cc1 | Fulfilled

====

// cross-source set; read-out = IC50; system = Serine protease 1 (Bos taurus, UniProt P00760)
observed.property: IC50

smiles.entry | result
N=C(N)NCCC[C@H](NC(=O)[C@@H]1CC[C@H]2C(=O)N(CCCc3ccccc3)CC(=O)N12)C(=O)c1nccs1 | < 0.001 µM
N=C(N)NCCC[C@H](NC(=O)CCCN)C(=O)c1nc2ccccc2s1 | > 1 µM
N=C(N)c1ccc(OC(=O)CCNC(=O)OCc2ccccc2)c(C(=O)c2ccccc2)c1 | > 10 µM
N=C(N)c1ccc(OC(=O)C2CC2)c([N+](=O)[O-])c1 | > 10 µM
CCOc1cc2c(=O)oc(-c3ccccc3S(C)(=O)=O)nc2cc1OC | > 10 µM
